# Assay System: CDK4/Cyclin D1 (Homo sapiens (Human))
# Sequence (P11802 whole entry): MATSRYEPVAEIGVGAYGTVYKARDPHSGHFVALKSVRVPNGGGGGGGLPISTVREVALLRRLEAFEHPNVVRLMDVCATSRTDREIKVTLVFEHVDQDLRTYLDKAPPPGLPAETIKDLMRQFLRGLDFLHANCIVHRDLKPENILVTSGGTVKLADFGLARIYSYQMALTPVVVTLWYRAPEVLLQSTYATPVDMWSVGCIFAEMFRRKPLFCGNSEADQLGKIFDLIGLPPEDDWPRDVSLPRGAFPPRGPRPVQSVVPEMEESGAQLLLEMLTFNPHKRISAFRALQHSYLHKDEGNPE
# Sequence (P24385 whole entry partner): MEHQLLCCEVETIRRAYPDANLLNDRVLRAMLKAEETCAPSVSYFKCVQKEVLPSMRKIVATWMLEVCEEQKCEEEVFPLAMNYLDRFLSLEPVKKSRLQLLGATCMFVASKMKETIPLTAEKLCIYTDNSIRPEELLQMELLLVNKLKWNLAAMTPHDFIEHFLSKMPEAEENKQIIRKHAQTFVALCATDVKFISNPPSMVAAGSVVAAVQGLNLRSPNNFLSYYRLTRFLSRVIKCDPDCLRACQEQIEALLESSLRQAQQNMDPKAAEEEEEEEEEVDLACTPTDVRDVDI
# Procedure Text: CDK4/Cyclin D1 mobility shift assay
# Experimental Conditions: activated CDK4/Cyclin D1, 3.5 mM ATP, Morrison fit; read-out: CDK4D1 Ki
Attribute Measured: pKi
On this scale, pKi is minus log10 of a concentration expressed in M (mol/L).

// worked examples, pKi included
Compound	Test Value
CC(C)n1c(CN2CCC2)nc2c(F)cc(-c3nc(N[C@@H]4CCOC[C@H]4O)ncc3Cl)cc21 [Example H07]	8.85
C[C@@H](O)c1nc2c(F)cc(-c3nc(N[C@@H]4CCN(S(C)(=O)=O)C[C@H]4O)ncc3Cl)cc2n1C(C)(C)C [Example A62]	9.30
CC(C)n1c(CN2CC(O)C2)nc2c(F)cc(-c3nc(N[C@@H]4CCOC[C@H]4O)ncc3Cl)cc21 [Example H03]	8.74
COC(=O)N1CC[C@@H](Nc2ncc(Cl)c(-c3cc(F)c4ncn(C5CCOC5)c4c3)n2)[C@H](O)C1 (single isomer, unassigned) [Example F02]	8.37
CC(C)NCc1nc2c(F)cc(-c3nc(N[C@@H]4CCOC[C@H]4O)ncc3Cl)cc2n1C(C)C [Example H08]	8.92
CC(C)n1c(C(C)(C)O)nc2c(F)cc(-c3nc(N[C@@H]4CCN(S(C)(=O)=O)C[C@H]4O)ncc3Cl)cc21 [Example A91]	10.00

Given CNC(=O)c1nc2c(F)cc(-c3nc(N[C@@H]4CCOC[C@H]4O)ncc3Cl)cc2n1C(C)C [Example A34] , state its recorded pKi.
7.95

Given CC(C)n1c([C@H](C)N)nc2c(F)cc(-c3nc(N[C@@H]4CCOC[C@H]4O)ncc3Cl)cc21 [Example A53] , state its recorded pKi.
9.22

Given COC(=O)N1CC[C@@H](Nc2ncc(Cl)c(-c3cc(F)c4ncn(C5CCOC5)c4c3)n2)[C@H](O)C1 (single isomer, unassigned) [Example F03] , state its recorded pKi.
8.57

Given Cc1nc2c(F)cc(-c3nc(N[C@@H]4CCN(S(C)(=O)=O)C[C@H]4O)ncc3Cl)cc2n1[C@@H](C)CN [Example A39] , state its recorded pKi.
8.89

Given CNC(=O)CN1CC[C@@H](Nc2cc(-c3ccc4ncn(C(C)(C)C)c4n3)c(Cl)cn2)[C@H](O)C1 [Example F33] , state its recorded pKi.
9.70

Given CC(C)n1c(C2CCO2)nc2c(F)cc(-c3nc(N[C@@H]4CCN(S(C)(=O)=O)C[C@H]4O)ncc3Cl)cc21 (single isomer, unassigned) [Example A31] , state its recorded pKi.
9.30
